Target: T1, human IL-1α (human, UniProt P01583 113-271)
T1 sequence (looked up): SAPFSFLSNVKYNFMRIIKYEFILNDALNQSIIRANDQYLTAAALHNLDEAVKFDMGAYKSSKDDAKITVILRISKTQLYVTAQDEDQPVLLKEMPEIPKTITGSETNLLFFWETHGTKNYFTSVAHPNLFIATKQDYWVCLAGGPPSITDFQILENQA
Test: cell-based or functional assay
Decision: ND50 beneath 20 nM gives 1.0; ND50 meeting or exceeding 20 nM gives 0.0.

ABT1-95-13 (other, VK dAb) VL: DIQMTQSPSSLSASVGDRVTITCRASQPIVRNLRWYQQKPGKAPKLLIYSSSYLERGVPSRFSGSGSGTDFTLTISSLQPEDFATYHCQQGYRWPVTFGQGTKVEIKR :: 1.0
ABT1-95-162 (other) VL: DIQMTQSPSSLSASVGDRVTITCRASKPIVRNLRWYQQKPGKAPKLLIYSSSYLEPGVPSRFSGSGSGTDFTLTISSLQPEDFATYHCQQGYRWPVTFGQGTKVEIKR :: 1.0
ABT1-122-511 (other, VK dAb) VL: DIQMTQSPSSLSASVGDRVTITCRASQPIWTELNWYQQKPGKAPKLLIYGSSSLQRGVPSRFSGSGSGTDFTLTISSLQPEDFATYYCKQFAYFPATFGQGTKVEIKR :: 1.0
ABT1-95-139 (other, VK dAb) VL: DIQMTQSPSSLSASVGDRVTITCRASQQIVRNLRWYQQKPGKAPKLLIYSSSYLEPGVPSRFSGSGSGTDFTLTISSLQPEDFATYHCQQGYRWPVTFGQGTKVEIKR :: 1.0
ABT1-97 (other) VH: EVQLLESGGGLVQPGGSLRLSCAASGFTFWEYDMYWVRQAPGKGLEWVSRISGSGRYTYYADSVKGRFTISRDNSKNTLYLQMNSLRAEDTAVYYCAKRSLTRPSQFDYWGQGTLVTVSS :: 0.0

Quick check: ND50 of ABT1-22 (other) VH: EVQLLESGGGLVQPGGSLRLSCAASGFTLKAYNMSWVRQAPGKGLEWVSLISSTGMFTDYADSVKGRFTISRDNSKNTLYLQMNSLRAEDTAVYYCAKWGVRRGLYFDYWGQGTLVTVSS under 20 nM?
0.0

Below 20 nM on ND50? Entry ABT1-95-A5 (other) VL: DIQMTQSPSSLSASVGDRVTITCRASRTPVRNLRWYQQKPGKAPKLLIYSRSFLEPGVPSRFSGSGSGTDFTLTISSLQPEDFATYHCLQGYRWPPTFGQGTKVEIKR
1.0
